molecular target: TSSK1B (human) (UniProt Q9BXA7); test: radiometric filter-binding kinase assay, Kinase HotSpot; conditions: compound 0.5 µM; ATP 10 µM
Sequence (Q9BXA7 whole entry, looked up): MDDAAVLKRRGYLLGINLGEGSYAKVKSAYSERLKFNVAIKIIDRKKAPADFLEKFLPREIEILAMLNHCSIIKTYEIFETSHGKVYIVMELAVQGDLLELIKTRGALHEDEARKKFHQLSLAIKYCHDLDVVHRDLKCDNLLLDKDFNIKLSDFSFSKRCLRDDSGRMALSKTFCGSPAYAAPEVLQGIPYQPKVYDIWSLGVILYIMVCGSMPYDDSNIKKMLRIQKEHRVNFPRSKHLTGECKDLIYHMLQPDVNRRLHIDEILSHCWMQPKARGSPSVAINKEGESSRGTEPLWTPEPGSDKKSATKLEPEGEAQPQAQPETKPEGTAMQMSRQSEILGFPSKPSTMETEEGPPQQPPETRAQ
For each entry below, report its residual activity value.
The reply should be a number in %, with the unit left off.

[in] Give the measured residual activity for `O=c1cc(N2CCOCC2)oc2c1ccc1ccccc12`
[out] 101

[in] Give the measured residual activity for `Cc1ccc(S(=O)(=O)/C=C/C#N)cc1`
[out] 97.4

[in] Give the measured residual activity for `CCN(CC)CCNC(=O)c1c(C)[nH]c(/C=C2\C(=O)Nc3ccc(Cl)cc32)c1C`
[out] 8.45

[in] Give the measured residual activity for `COc1cc2ncnc(Nc3cccc(Cl)c3)c2cc1OC`
[out] 95.7

[in] Give the measured residual activity for `COc1ccc2c(c[n+](C)c3c4cc5c(cc4ccc23)OCO5)c1OC`
[out] 97.3

[in] Give the measured residual activity for `O=C(Nc1cccc(Nc2nccc(Nc3cccc(C(F)(F)F)c3)n2)c1)C1CC1`
[out] 100

[in] Give the measured residual activity for `CNC(=O)c1cc(Oc2ccc(NC(=O)Nc3ccc(Cl)c(C(F)(F)F)c3)cc2)ccn1`
[out] 98.7

[in] Give the measured residual activity for `CC[n+]1c(/C=C/N(C)c2ccccc2)n(-c2ccccc2)c2ccc(-c3nc4ccccc4s3)cc21`
[out] 102

[in] Give the measured residual activity for CO[C@H]1CC2CC[C@@H](C)[C@@](O)(O2)C(=O)C(=O)N2CCCC[C@H]2C(=O)OC([C@H](C)C[C@@H]2CC[C@@H](O)[C@H](OC)C2)CC(=O)[C@H](C)/C=C(\C)[C@@H](O)[C@@H](OC)C(=O)[C@H](C)C[C@H](C)/C=C/C=C/C=C/1C (stereo not given in full)
[out] 103

[in] Give the measured residual activity for `Cc1ccc(NC2=CC(=O)c3sc(C)nc3C2=O)cc1`
[out] 115

[in] Give the measured residual activity for `CNc1cc2c(Nc3cccc(Br)c3)ncnc2cn1`
[out] 60.2

[in] Give the measured residual activity for `c1ccc(-c2n[nH]cc2-c2ccnc3ccccc23)nc1`
[out] 104

[in] Give the measured residual activity for `Nc1ncnc2c1c(-c1ccc(Oc3ccccc3)cc1)cn2C1CCCC1`
[out] 114

[in] Give the measured residual activity for `Nc1ccc2ncnc(NCCc3ccc(Oc4ccccc4)cc3)c2c1`
[out] 100

[in] Give the measured residual activity for `CCN(CC)C(=O)c1ccc(Nc2nc(OCC3CCCCC3)c3nc[nH]c3n2)cc1`
[out] 15.3

###

biological target: TYK2 JH1 catalytic (human); test: radiometric filter-binding kinase assay, Kinase HotSpot; details: compound 0.5 µM; ATP 10 µM
In plain terms, low residual activity, meaning strictly below 80%, gives True, and everything else gives False.

[in] # check: residual activity < 80% for `CC(=O)c1ccc(N2CCOCC2)cc1O`
[out] False

[in] # check: residual activity < 80% for `O=C1NC(=O)c2c1c1c3ccccc3n3c1c1c2c2ccccc2n1C1CCC3O1`
[out] True

[in] # check: residual activity < 80% for `CC#CC(=O)Nc1cc2c(Nc3ccc(F)c(Cl)c3)ncnc2cn1`
[out] False

[in] # check: residual activity < 80% for `CNC(=O)c1cc(Oc2ccc(NC(=O)Nc3ccc(Cl)c(C(F)(F)F)c3)cc2)ccn1`
[out] False

[in] # check: residual activity < 80% for `c1ccc(-c2n[nH]c3c2oc2ccccc23)cc1`
[out] False

[in] # check: residual activity < 80% for `CCN(CC)CCNC(=O)c1c(C)[nH]c(/C=C2\C(=O)Nc3ccc(F)cc32)c1C`
[out] True

[in] # check: residual activity < 80% for `O=C1NC(=O)C(c2cn(CCCn3ccnc3)c3ccccc23)=C1Nc1ccccc1`
[out] False

[in] # check: residual activity < 80% for `Nc1cccc(-c2cc3c(Oc4cccc(O)c4)ncnc3[nH]2)c1`
[out] True

[in] # check: residual activity < 80% for `CC(C)N(CCC(=O)c1ccc2ccccc2c1)Cc1ccccc1`
[out] False
